Assay: thallium flux activation in parental CHO cells, counter-screen for KCNQ1 potentiator project (AID 493006);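 on activation: fluorescence ratio of max minus min over baseline after K+ and Tl+ depolarization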
Settings: parental CHO-K1 cells, FluxOR thallium flux, at 10 µM
The source made the active and inactive calls.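 How the source made its calls: active means duplicate-averaged activation above buffer control mean plus 5 SD of those controls; inactive means the rest.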
Classes used: class 1 for active, class 0 for inactive

                                    compound  assigned_label
 0  CCn1nnc2cc(C(=O)Nc3cc(S(C)(=O)=O)ccc3Cl)ccc21         class 0
 1  CC1CCN(C(=S)NC(=O)c2cccc([N+](=O)[O-])c2)CC1         class 1
 2  CC1CCc2c(sc3[nH]c(=S)n(C)c(=O)c23)C1 (stereo not drawn)         class 1
 3  CCOc1ccc(-n2cc(C(=O)Nc3cccc(C)n3)c3cc(OC)c(OC)cc3c2=O)cc1         class 0
 4  CCOc1cc(CNCCCN2CCOCC2)ccc1OCC(=O)NC(C)(C)C         class 0
 5  O=C(NC(=S)Nc1ccccc1N1CCOCC1)c1ccc(-c2ccccc2F)o1         class 1
 6       Cn1ccnc1C(=O)c1cccc([N+](=O)[O-])c1         class 0
 7  Cc1ccccc1NC(=S)NC(=O)c1cc(-c2ccccc2)nc2ccccc12         class 1
 8                NC(=Nc1ccc(Cl)cc1)c1ccccc1         class 0
 9  COc1ccc(CNC(=O)CSc2nc3ccc(OC)cc3[nH]2)cc1         class 0
10      Cc1cc(C)cc(C(=O)OCC(=O)NCC(F)(F)F)c1         class 0
11     O=C(CSc1nc2cc(Cl)ccc2s1)c1cc2ccccc2o1         class 0
12               CCCNC(=O)C(=O)N/N=C/c1cccs1         class 0
13  N#Cc1ccccc1NS(=O)(=O)c1cc2c3c(c1)CCC(=O)N3CCC2         class 0
14  Cc1occc1C(=O)NNC(=S)NC(=O)COc1ccc(Cl)cc1Cl         class 1
15  Nc1nnc(SCC(=O)N2CCN(c3ccccc3)CC2)n1-c1ccccc1         class 0
16         CCNC(=S)Nc1nc2c(cc1C(=O)OCC)CCCC2         class 1
17  Cn1cccc1/C=N/n1c(-c2ccc(Cl)cc2Cl)n[nH]c1=S         class 0
18  COc1ccc(NC(=S)N2CCC(C(O)(c3ccccc3)c3ccccc3)CC2)cc1         class 0
19  COc1cccc(OC)c1C(=O)Nc1cccc(-c2ccc3nncn3n2)c1         class 0
20  CCOC(=O)C1CCCN(C(=O)C2CCN(S(=O)(=O)c3ccc4ccccc4c3)CC2)C1 (stereo not drawn)         class 0
21  CN(C)CCNc1ncnc2c1sc1nc(N3CCOCC3)c3c(c12)CC(C)(C)SC3         class 0
22  CC(C)C1Cc2c(sc3[nH]c(=S)n(Cc4ccccc4)c(=O)c23)CO1 (stereo not drawn)         class 1
